Listed variants paired with reported yeast fitness
B1: tRNA (parent)
chain: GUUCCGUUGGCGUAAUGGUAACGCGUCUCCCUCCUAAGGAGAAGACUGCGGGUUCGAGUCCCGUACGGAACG

Variants of: B1
Assay: yeast fitness relative to wild type (ratio to wild type); higher = fitter; tRNA-Arg(CCU), competitive growth, 37 C, YPD
This sample holds only a part of the variants without activity.
Please state the value as a number alone, without comment.

C4G U7C C33G G52A = 0.652
C11G C31U C33U = 0.509
U16A A45C = 0.994

Exercise: Need yeast fitness, item G48C C49U
Key: 0.787

Exercise: Return reported yeast fitness; argument: U13C A43U A70G
Key: 0.966

Exercise: Fill in: yeast fitness of U8G C49U C55U is ___
Key: 0.549
